- STUDY_SYSTEM: full-length human PKCι (Homo sapiens, UniProt P41743)
- Construct: Recombinant, full-length human PKCι expressed in Sf21 insect cells is also commercially available
- Sequence (P41743 whole entry): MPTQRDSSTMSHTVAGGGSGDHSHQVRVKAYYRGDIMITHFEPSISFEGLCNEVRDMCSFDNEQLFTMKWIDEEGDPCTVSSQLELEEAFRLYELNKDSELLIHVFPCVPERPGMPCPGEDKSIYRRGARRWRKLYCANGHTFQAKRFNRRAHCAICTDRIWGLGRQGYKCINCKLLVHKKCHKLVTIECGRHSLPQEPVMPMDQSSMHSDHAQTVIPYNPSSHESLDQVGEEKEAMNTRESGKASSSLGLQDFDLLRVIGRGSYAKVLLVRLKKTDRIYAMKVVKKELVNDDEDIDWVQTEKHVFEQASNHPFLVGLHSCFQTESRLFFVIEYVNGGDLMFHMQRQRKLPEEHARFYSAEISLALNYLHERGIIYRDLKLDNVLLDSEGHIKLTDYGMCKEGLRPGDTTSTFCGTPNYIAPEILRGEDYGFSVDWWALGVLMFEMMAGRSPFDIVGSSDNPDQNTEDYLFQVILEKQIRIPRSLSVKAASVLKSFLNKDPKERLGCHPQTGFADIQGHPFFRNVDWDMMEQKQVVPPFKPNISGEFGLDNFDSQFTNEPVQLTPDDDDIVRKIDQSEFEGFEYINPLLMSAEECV
- RUN_DESCRIPTION: PKCι IC50 IMAP assay, full-length PKCι at 150 μM ATP
- COND: read-out: IC50 in IMAP assay against full length PKCi at 150 μM ATP
Each item that follows carries a reported IC50.

COMPOUND_STRUCTURE: N[C@@H](CNc1nc(-c2ccncc2)nc2c(Sc3ccccc3)nccc12)Cc1ccccc1
STUDY_SYSTEM: full-length human PKCι (Homo sapiens, UniProt P41743)
IC50: 1000 to 10000 nM

COMPOUND_STRUCTURE: N#Cc1ccccc1Nc1cc(-c2nc(N3CCNCC3)c3c(C4CC4)cncc3n2)ccn1
STUDY_SYSTEM: full-length human PKCι (Homo sapiens, UniProt P41743)
IC50: 100 to 1000 nM

COMPOUND_STRUCTURE: COc1cncc2nc(-c3ccncc3)nc(N3C[C@@H](C)N[C@@H](C)C3)c12
STUDY_SYSTEM: full-length human PKCι (Homo sapiens, UniProt P41743)
IC50: 1000 to 10000 nM

COMPOUND_STRUCTURE: Fc1cc(F)c(Nc2cc(-c3nc(N4CCNCC4)c4c(C(F)(F)F)cncc4n3)ccn2)nc1F
STUDY_SYSTEM: full-length human PKCι (Homo sapiens, UniProt P41743)
IC50: < 100 nM

----------
Form field: IC50 (one value per entry).
- STUDY_SYSTEM: full-length human PKCι (Homo sapiens, UniProt P41743)
- Construct: Recombinant, full-length human PKCι expressed in Sf21 insect cells is also commercially available
- RUN_DESCRIPTION: PKCι IC50 IMAP assay, full-length PKCι at 150 μM ATP
- COND: read-out: IC50 in IMAP assay against full length PKCi at 150 μM ATP

COMPOUND: CNC1CCCN(c2nc(-c3ccnc(Nc4ncc(F)cc4F)c3)nc3cncc(C4CC4)c23)C1 (stereo not shown) [Example 2205]
IC50: < 100 nM
--
COMPOUND: COc1cncc2nc(-c3ccncc3)nc(N3CCOC(Cc4ccccc4)C3)c12 (stereo not shown) [Example 72]
IC50: 1000 to 10000 nM
--
COMPOUND: COc1cncc2nc(-c3ccnc(Nc4cnn(-c5ccccc5F)c4)c3)nc(N3CCNCC3)c12 [Example 491]
IC50: < 100 nM
--
COMPOUND: c1cc(-c2nc(N3CCNCC3)c3ccncc3n2)ccn1 [Example 1]
IC50: 100 to 1000 nM
--
COMPOUND: COc1cncc2nc(-c3ccnc(Nc4cc(C#N)ccn4)c3)nc(N3CCNCC3)c12 [Example 352]
IC50: < 100 nM
--
COMPOUND: CC1(C)CN(c2nc(-c3ccnc(Nc4nc(F)ccc4F)c3)nc3cncc(C4CC4)c23)CCN1 [Example 838]
IC50: < 100 nM
--
COMPOUND: COc1cncc2nc(-c3ccnc(Nc4cccc(OCC(N)=O)c4)c3)nc(N[C@@H]3CCNC3)c12 [Example 323]
IC50: < 100 nM
--
COMPOUND: c1cc(Nc2cc(-c3nc(N4CCNCC4)c4c(C5CC5)cncc4n3)ccn2)cc(N2CCOCC2)c1 [Example 2023]
IC50: < 100 nM
--
COMPOUND: Fc1cccc(F)c1Nc1cc(-c2nc(NC3CCNCC3)c3c(C4CC4)cncc3n2)ccn1 [Example 790]
IC50: < 100 nM
--
COMPOUND: Cc1[nH]c2nccc(-c3nc(N4CCNCC4)c4c(C5CC5)cncc4n3)c2c1Cl [Example 2209]
IC50: < 100 nM
--
COMPOUND: COc1cncc2nc(N3CCOCC3)nc(N3CCN[C@@H](COc4ccccc4)C3)c12 [Example 1006]
IC50: 100 to 1000 nM
--
COMPOUND: OCC1CN(c2nc(-c3ccnc4[nH]c(C(F)(F)F)cc34)nc3cncc(C4CC4)c23)C1 [Example 1243]
IC50: 1000 to 10000 nM
--
COMPOUND: Fc1cc(F)c(Nc2cc(-c3nc(N4CCNCC4)c4c(C5CC5)cnc(C5CC5)c4n3)ccn2)nc1F [Example 2187]
IC50: 100 to 1000 nM
--
COMPOUND: c1ccn2nc(Nc3cc(-c4nc(N5CCNCC5)c5c(C6CC6)cncc5n4)ccn3)cc2c1 [Example 2072]
IC50: < 100 nM
--
COMPOUND: C[C@H](Nc1cc(-c2nc(N3CCNCC3)c3c(C4CC4)cncc3n2)ccn1)c1ccccc1 [Example 587]
IC50: < 100 nM
--
COMPOUND: CC1(C)CN(c2nc(-c3ccnc(Nc4nc(F)c(F)cc4F)c3)nc3cncc(C4CC4)c23)CCN1 [Example 815]
IC50: < 100 nM

----------
- STUDY_SYSTEM: full-length human PKCι (Homo sapiens)
- Construct: Recombinant, full-length human PKCι expressed in Sf21 insect cells is also commercially available
- RUN_DESCRIPTION: PKCι IC50 IMAP assay, full-length PKCι at 150 μM ATP
- COND: read-out: IC50 in IMAP assay against full length PKCi at 150 μM ATP
pIC50: −log10 of the molar value.

COMPOUND: CCN1CCP(=O)(c2ccc(Nc3cc(-c4nc(N5CCNCC5)c5c(C6CC6)cncc5n4)ccn3)c(OC)c2)CC1 [Example 625]
pIC50: 6.00 to 7.00
//
COMPOUND: Fc1cc(F)c(Nc2cc(-c3nc(N[C@@H]4CCNC4)c4c(C5CC5)cncc4n3)ccn2)nc1F [Example 2056]
pIC50: > 7.00
//
COMPOUND: c1ccc2sc(Nc3cc(-c4nc(N5CCNCC5)c5c(C6CC6)cncc5n4)ccn3)nc2c1 [Example 2045]
pIC50: > 7.00
//
COMPOUND: CNC(=O)c1ccc(Nc2cc(-c3nc(N4CCNCC4)c4c(C5CC5)cncc4n3)ccn2)cc1 [Example 841]
pIC50: > 7.00
//
COMPOUND: Fc1ccccc1Nc1cc(-c2nc(N3CCNCC3)c3c(Nc4ccccc4F)cncc3n2)ccn1 [Example 248]
pIC50: > 7.00
//
COMPOUND: C=C(C)c1cncc2nc(-c3ccncc3)nc(N3CCNCC3)c12 [Example 143]
pIC50: > 7.00
//
COMPOUND: COc1cncc2nc(-c3ccnc(Nc4c(C)cccc4F)c3)nc(N3CCNCC3)c12 [Example 422]
pIC50: > 7.00
//
COMPOUND: COc1cc(N2CCOCC2)ccc1Nc1cc(-c2nc(N[C@@H]3CCNC3)c3ccncc3n2)ccn1 [Example 358]
pIC50: 6.00 to 7.00
//
COMPOUND: N#Cc1ccnc(Nc2cc(-c3nc(N4CC[C@H](O)[C@H](O)C4)c4c(C5CC5)cncc4n3)ccn2)c1 (stereo in doubt) [Example 487]
pIC50: > 7.00
//
COMPOUND: FC(F)(F)c1cc2c(-c3nc(N4CCSCC4)c4c(C5CC5)cncc4n3)ccnc2[nH]1 [Example 1246]
pIC50: 4.40 to 5.00
//
COMPOUND: CNCCNc1nc(-c2ccnc(Nc3c(F)cccc3F)c2)nc2cncc(C3CC3)c12 [Example 775]
pIC50: > 7.00
//
COMPOUND: FC(F)(F)c1cc2c(-c3nc(N4CCNCC4)c4c(Br)cncc4n3)ccnc2[nH]1 [Example 2117]
pIC50: > 7.00
//
COMPOUND: COc1cncc2nc(-c3ccnc(Nc4ccc(C#N)nc4)c3)nc(N3CCNCC3)c12 [Example 384]
pIC50: 6.00 to 7.00
//
COMPOUND: Fc1cc(C2CC2)ccc1Nc1cc(-c2nc(N3CCNCC3)c3c(C4CC4)cncc3n2)ccn1 [Example 641]
pIC50: > 7.00
//
COMPOUND: Fc1cc(C2CC2)nc(F)c1Nc1cc(-c2nc(N3CCNCC3)c3c(C4CC4)cncc3n2)ccn1 [Example 724]
pIC50: > 7.00
//
COMPOUND: CC(C)NC(=O)C1CCN(c2nc(-c3ccnc(NC4CCCC4)c3)nc3cncc(C4CC4)c23)CC1 [Example 679]
pIC50: 5.00 to 6.00
//
COMPOUND: COc1cncc2nc(-c3ccnc(Nc4ccc(C(F)(F)F)nc4)c3)nc(N3CCNCC3)c12 [Example 395]
pIC50: 6.00 to 7.00
//
COMPOUND: COc1cncc2nc(-c3ccnc4[nH]ccc34)nc(N3CCN[C@@H](CO)C3)c12 [Example 1206]
pIC50: > 7.00
//
COMPOUND: COc1cncc2nc(-c3ccnc(Nc4cc(C#N)ccn4)c3)nc(N3CCC[C@@H](O)C3)c12 [Example 429]
pIC50: 5.00 to 6.00
//
COMPOUND: CS(=O)(=O)C[C@H]1CN(c2nc(-c3ccnc(NC(=O)C4CC4)c3)nc3cncc(C4CC4)c23)CCN1 [Example 773]
pIC50: 6.00 to 7.00
//
COMPOUND: NC(=O)N1CCN(c2nc(-c3ccncc3)nc3cnccc23)CC1 [Example 56]
pIC50: 4.40 to 5.00
//
COMPOUND: NCC1CCN(c2nc(-c3ccnc(Nc4c(F)cccc4F)c3)nc3cncc(C4CC4)c23)CC1 [Example 696]
pIC50: > 7.00
//
COMPOUND: Nc1ccc(CC(=O)Nc2cc(-c3nc(N[C@@H]4CCNC4)c4ccncc4n3)ccn2)cc1 [Example 314]
pIC50: > 7.00
//
COMPOUND: NC(=O)CN[C@H](CNc1nc(-c2ccncc2)nc2cnccc12)Cc1ccccc1 [Example 82]
pIC50: 5.00 to 6.00
//
COMPOUND: CC1(C)CN(c2nc(-c3ccnc(Nc4ncccc4F)c3)nc3cncc(C4CC4)c23)CCN1 [Example 840]
pIC50: > 7.00
//
COMPOUND: c1ccc(C[C@@H]2CN(c3nc(-c4ccncc4)nc4cnccc34)CCN2)cc1 [Example 17]
pIC50: 5.00 to 6.00
//
COMPOUND: Fc1cnc(F)c(Nc2cc(-c3nc(N4CCNCC4)c4c(C5CC5)cncc4n3)ccn2)c1 [Example 749]
pIC50: > 7.00
